Entries in open arms, test after 10 min injection reference
system: Sprague Dawley rats; assay: Elevated X maze test; type: in vivo, Sprague Dawley rat; conditions: 20 mg/kg i.v., rats, 10 min
recorded.endpoint: Entries in open arms, test after 10 min injection

compound=CCCN(CCC)C(=O)Cc1c(-c2ccc(Br)cc2)[nH]c2ccccc12 reported_value=2
compound=CCCN(CCC)C(=O)Cc1c(-c2ccc(Cl)cc2)n(C)c2ccccc12 reported_value=3
compound=CCCN(CCC)C(=O)Cc1c(-c2ccc(F)cc2)[nH]c2ccccc12 reported_value=3
compound=CCCN(CCC)C(=O)Cc1c(-c2cccc(Cl)c2)[nH]c2ccccc12 reported_value=2
compound=CCCN(CCC)C(=O)C=Cc1c(-c2ccc(Cl)cc2)[nH]c2ccccc12 reported_value=3
compound="CCCN(CCC)C(=O)C(C)c1c(-c2ccc(Cl)cc2)[nH]c2ccccc12 (centres unmarked)" reported_value=1
compound=CCCN(CCC)C(=O)Cc1c(-c2ccccc2)[nH]c2ccccc12 reported_value=0
compound=CCCCCCNC(=O)Cc1c(-c2ccccc2)[nH]c2ccccc12 reported_value=2
